Let's look at some compounds and their measured EC50.
- System: Huh-7 cells containing HCV Con1 subgenomic replicon (GS4.1 cells)
- METHOD: HCV replicon assay (NS5A ELISA)
- Format: cell-based
- TEST SETTINGS: Hepatitis C virus, Huh-7; GS4.1 cells, 72 hrs, NS5A ELISA; read-out: EC50

The examples below pair each entry with its known result.
COMPOUND	EC50
COC(=O)N[C@H](C(=O)N1CCCC1c1ncc(-c2ccc(-c3cn4c(-c5ccccc5)csc4n3)cc2)[nH]1)C(C)C (some centres unmarked)	1 to 10 nM
COC(=O)N[C@H](C(=O)N1CCC[C@H]1c1ncc(-c2csc3c(-c4cnc([C@@H]5CCCN5C(=O)[C@@H](NC(=O)OC)C(C)C)[nH]4)csc23)[nH]1)C(C)C	< 1 nM
COC(=O)N[C@H](C(=O)N1CCC[C@H]1c1ncc(-c2ccc(-c3csc4c(-c5ccc(-c6cnc([C@@H]7CCCN7C(=O)[C@@H](NC(=O)OC)C(C)C)[nH]6)cc5)csc34)cc2)[nH]1)C(C)C	< 1 nM
COC(=O)N[C@H](C(=O)N1CCC[C@H]1C(=O)Nc1cn2cc(-c3ccc(-c4cnc([C@@H]5CCCN5C(=O)[C@@H](NC(=O)OC)C(C)C)[nH]4)cc3)sc2n1)C(C)C	1 to 10 nM

Q: Given the entry COC(=O)N[C@H](C(=O)N1CCCC1c1ncc(-c2cc3sc(-c4ncc(-c5c[nH]c([C@@H]6CCCN6C(=O)[C@@H](NC(=O)OC)C(C)C)n5)s4)cc3s2)[nH]1)C(C)C (some centres unmarked) , report its measured EC50.
A: < 1 nM
